- tgt: Protein RecA (Mycobacterium tuberculosis, UniProt P9WHJ3)
- Sequence (P9WHJ3 whole entry): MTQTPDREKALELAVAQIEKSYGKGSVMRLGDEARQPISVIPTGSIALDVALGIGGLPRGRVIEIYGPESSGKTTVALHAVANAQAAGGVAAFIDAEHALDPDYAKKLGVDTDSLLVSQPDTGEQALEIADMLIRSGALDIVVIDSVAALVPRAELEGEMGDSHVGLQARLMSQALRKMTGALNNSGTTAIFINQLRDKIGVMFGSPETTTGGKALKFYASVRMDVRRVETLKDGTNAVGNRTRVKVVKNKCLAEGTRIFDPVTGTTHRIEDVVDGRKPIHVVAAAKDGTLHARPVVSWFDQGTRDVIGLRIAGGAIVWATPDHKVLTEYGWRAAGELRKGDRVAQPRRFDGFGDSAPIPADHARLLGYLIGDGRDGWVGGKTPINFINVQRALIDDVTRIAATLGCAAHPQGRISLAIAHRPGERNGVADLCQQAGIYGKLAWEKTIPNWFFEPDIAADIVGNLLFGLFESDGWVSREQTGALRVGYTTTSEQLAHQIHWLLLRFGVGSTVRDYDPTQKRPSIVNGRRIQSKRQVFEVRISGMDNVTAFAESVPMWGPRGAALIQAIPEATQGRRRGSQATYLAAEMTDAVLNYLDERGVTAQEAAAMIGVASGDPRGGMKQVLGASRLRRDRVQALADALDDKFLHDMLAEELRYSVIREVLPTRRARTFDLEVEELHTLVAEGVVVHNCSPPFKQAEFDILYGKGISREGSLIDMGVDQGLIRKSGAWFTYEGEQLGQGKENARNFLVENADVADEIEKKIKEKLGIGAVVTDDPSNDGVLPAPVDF
- methodDescription: Fluorescence Cell-Free Homogeneous Dose Retest to Identify Inhibitors of RecA-Intein Splicing Activity. [Related pubchem assays (depositor defined):AID2097, AID2223, AID489010, AID492950]
- Format: functional
Active and inactive are the calls of the source. Cut-off read from the data, not from the text of the source: actives have a measured EC50 and inactives only a lower limit.
Parameter call: string, one of Yes = active, No = inactive

Qu. Give the logged outcome of this assay for the following compound: `CCC(=O)N(C1=C(NC)C(=O)c2ccccc2C1=O)C(C)C`
Ans. Yes

Qu. Give the logged outcome of this assay for the following compound: `COc1ccc(/C=C2/SC(=S)N(CCCC(=O)Nc3cccc(O)c3)C2=O)cc1`
Ans. No

Qu. Give the logged outcome of this assay for the following compound: `CC1=NN(Cc2ccccc2)C(=O)C1`
Ans. Yes

Qu. Give the logged outcome of this assay for the following compound: `CS(=O)(=O)c1ccc(C(=O)OCc2nnc(-c3ccc(Cl)cc3)o2)cc1[N+](=O)[O-]`
Ans. Yes

Qu. Give the logged outcome of this assay for the following compound: `CCc1cccc(NC(=O)CSCc2cc(O)[nH]n2)c1`
Ans. Yes

Qu. Give the logged outcome of this assay for the following compound: `Nc1c(-c2ccccc2)c(CSc2nc3ccccc3[nH]2)nn1-c1cccc(Cl)c1`
Ans. Yes

Qu. Give the logged outcome of this assay for the following compound: CCCCCc1cc(=O)oc2c(C(CCN3CCCC(C)C3)c3ccc4c(c3)OCO4)c(OC)cc(OC)c12 (centres undefined)
Ans. Yes

Qu. Give the logged outcome of this assay for the following compound: `Cc1onc(-c2ccccc2)c1-c1nc2ccccc2c(=O)o1`
Ans. Yes

Qu. Give the logged outcome of this assay for the following compound: CC1CC(C)CN(C(=O)c2ccc3c(c2NCCO)C(=O)c2ccccc2C3=O)C1 (centres undefined)
Ans. Yes

Qu. Give the logged outcome of this assay for the following compound: `O=C(NCc1ccccc1)c1nc(S(=O)(=O)Cc2ccccc2)ncc1Cl`
Ans. Yes

Qu. Give the logged outcome of this assay for the following compound: `Cc1c(C#N)c(NC(=O)CCl)n(Cc2ccc(F)cc2)c1C`
Ans. Yes

Qu. Give the logged outcome of this assay for the following compound: CSCCC1C(C#N)=C(N)Oc2[nH]nc(-c3cccs3)c21 (centres undefined)
Ans. Yes

Qu. Give the logged outcome of this assay for the following compound: `CCCCn1c(NC(=O)c2ccco2)c(S(=O)(=O)c2ccc(C)cc2)c2nc3ccccc3nc21`
Ans. No

Qu. Give the logged outcome of this assay for the following compound: CCCc1n[nH]c2c1C(c1ccc(OC)c(Cn3nnc4ccccc43)c1)C(C#N)=C(N)O2 (centres undefined)
Ans. Yes

Qu. Give the logged outcome of this assay for the following compound: `Cc1ccc(Nc2cc(C)nc3c(C)ccc([N+](=O)[O-])c23)cc1`
Ans. Yes

Qu. Give the logged outcome of this assay for the following compound: `N#C/C(=C/c1ccc2c(c1)OCO2)C(=O)Nc1ccc(O)cc1`
Ans. Yes

Qu. Give the logged outcome of this assay for the following compound: `Cc1ccc(S(=O)(=O)NC(=O)Nc2ccc(N(C)C)cc2)cc1`
Ans. Yes

Qu. Give the logged outcome of this assay for the following compound: `CC(=O)c1ccc(-c2cccc(-c3nc4ccccn4c3NC3CCCCC3)c2)cc1`
Ans. Yes

Qu. Give the logged outcome of this assay for the following compound: CCc1n[nH]c2c1C(c1cccnc1)C(C#N)=C(N)O2 (centres undefined)
Ans. Yes
